EXPERIMENTAL DETAILS: qHTS of pediatric cancer cell lines to identify multiple opportunities for drug repurposing: Primary screen for MG 63 (6-TG R) cells (AID 1347105); also: % is scaled to controls: 0 for no effect and ±100 for the full control effect; nearly all actives have a fitted effect of over 50% in size
CONDITIONS: MG 63 (6-TG R) viability, CellTiter-Glo, 48 h; series mostly up to 46 µM
Method: Drug repurposing or repositioning has been offered as a strategy for drug development in oncology programs. This approach has special potential for childhood cancers and other rare or orphan diseases, where the expected return on new drug development has been a disincentive to pharmaceuticals. […] We employed a titration-based paradigm (quantitative high-throughput screening or qHTS), where all compounds were tested at multiple concentrations for their effect on cell viability. […]
Results filed as inconclusive are left out. Active and inactive are the calls of the source. Calls follow the shape of the dose curve; as a rule, active = well fitted cell-killing curve with a large enough effect; inconclusive = small, poorly fitted or top-dose-only effect; inactive = no such curve, though single readings can be large or run the other way.
Assign a class; possible classes are active, inactive

> print(dat)
                                   compound  class.assignment
1  Cc1nnc(C(=O)NC(C)(C)c2nc(C(=O)NCc3ccc(F)cc3)c(O)c(=O)n2C)o1          inactive
2                  O=NN(CCCl)C(=O)NC1CCCCC1          inactive
3                   NC(N)=NC(N)=NCCc1ccccc1          inactive
4    COc1cccc(N(C)C(=S)Oc2ccc3c(c2)CCCC3)n1          inactive
5          O=S(=O)(c1cccc2cnccc12)N1CCCNCC1          inactive

Next, consider the following compound.
Check the results log: what was the call for "CCCN[C@H]1CCc2nc(N)sc2C1" ?
inactive

---

Test system: CP265
EXPERIMENTAL DETAILS: qHTS profiling for inhibitors of Plasmodium falciparum proliferation (AID 504749); also: nearly all actives have a fitted effect of over 60% in size
CONDITIONS: P. falciparum in erythrocytes, SYBR Green DNA, 72 h; series mostly up to 28.7 µM
Records with an inconclusive call do not appear. Calls of active or inactive are those of the source. Calls follow the shape of the dose curve; as a rule, active = well fitted inhibition curve with a large enough effect; inconclusive = small, poorly fitted or top-dose-only effect; inactive = flat fitted curve, though single readings scatter.
Tick one outcome: yes (active), no (inactive)

Use these answered entries as a reference point.
> print(dat)
                                   compound  class.assignment
1  Cc1cccc(Nc2ccncc2S(=O)(=O)NC(=O)NC(C)C)c1                no
2  CC[C@H](C)C(=O)O[C@H]1C[C@@H](C)C=C2C=C[C@H](C)[C@H](CC[C@@H]3C[C@@H](O)CC(=O)O3)[C@H]21                no
3         O=P(O)(O)C(O)(Cc1cccnc1)P(=O)(O)O                no
4  Cc1oc(=O)oc1CN1CCN(c2cc3c(cc2F)c(=O)c(C(=O)O)c2n3C(C)S2)CC1 (stereo unspecified)               yes
5  CN1CCN(c2c(F)cc3c(=O)c(C(=O)O)cn(CCF)c3c2F)CC1                no
6       COc1ncnc(NS(=O)(=O)c2ccc(N)cc2)c1OC                no

For "NC(=O)c1cccnc1" , what call appears in the results of this test?
no

Tell me the assay call for "COc1ccc(C(=O)CC(=O)c2ccc(C(C)(C)C)cc2)cc1" please.
no

Assay outcome for "O=S(=O)(O)CCS" : what was it?
no

Please state the recorded outcome for this compound: "O=NN(CCCl)C(=O)NC1CCCCC1"
no

// param item: "NC(=O)N1c2ccccc2CC(=O)c2ccccc21" ; yields the recorded call
no

---

Recorded max response by entry
EXPERIMENTAL DETAILS: qHTS Assay for Identifying Gametocytocidal Compounds (AID 743244);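 also: % is scaled to controls: 0 for no effect and ±100 for the full control effect; actives lower the fluorescent signal which means gametocytes are killed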
CONDITIONS: P. falciparum 3D7 stage III-V gametocytes, alamarBlue, 72 h; stronger effect = lower value
Results filed as inconclusive are left out.
Quick note: give the figure in %, leave out the unit.

> print(dat)
                                   compound  measured.value
1        CC(C)OC(=O)C(C(=O)OC(C)C)=C1SC=CS1            13.6
2            CCCOc1ccc(C(=O)OCCN(CC)CC)cc1N            14.8
3       COc1ncnc(NS(=O)(=O)c2ccc(N)cc2)c1OC           -8.03
4   COC(=O)Nc1nc2ccc(C(=O)c3ccccc3)cc2[nH]1           -6.13
5  COc1ccc2c(c1)c(CC(=O)OCC(=O)O)c(C)n2C(=O)c1ccc(Cl)cc1           -13.1
6                  O=NN(CCCl)C(=O)NC1CCCCC1           -7.36

I am curious: what max response value has been reported for CC1=C(C(=O)O)N2C(=O)[C@@H](NC(=O)C(N)c3ccccc3)[C@H]2SC1 (stereo partly specified) ?
7.37

Suppose we examine the compound "O=S(=O)(O)CCS" ; what max response value has been reported?
-4.29

Look up max response: "CCOC(=O)c1ccc(OC(=O)CCCCCN=C(N)N)cc1"
-8.62

Recorded max response of "C[C@@H]1CN(c2c(F)c(N)c3c(=O)c(C(=O)O)cn(C4CC4)c3c2F)C[C@H](C)N1" , please.
13.9

If you can, please state the reported max response value of COc1c(N2CCNC(C)C2)c(F)cc2c(=O)c(C(=O)O)cn(C3CC3)c12 (stereo unspecified) .
-5.93

---

EXPERIMENTAL DETAILS: Quantitative High-Throughput drug screen in 47 multiple myeloma cell lines against the NCATS MIPE library collection: KHM11_PLB cell viability assay (AID 1918962); also: nearly all actives have a fitted effect of over 35% in size
CONDITIONS: KHM11 myeloma cell viability, CellTiter-Glo ATP luminescence, 48 h; series mostly up to 45.8 µM
Results filed as inconclusive are left out. Active and inactive are the calls of the source. Calls come from the whole dose curve; as a rule, active = well fitted cell-killing curve with a large enough effect; inconclusive = small, poorly fitted or top-dose-only effect, or effect the other way; inactive = no such curve, though single readings can be large or run the other way.
Mark one answer only. Choices: 1 (active), 0 (inactive)

Which outcome was entered for the compound "CNC(=O)c1cc(Oc2ccc(NC(=O)Nc3ccc(Cl)c(C(F)(F)F)c3)cc2)ccn1" in this test?
1

Field: outcome | Entry: "CCCc1cc(C(N)=S)ccn1"
0

Hi, do you know how "N[C@@H](C(=O)N[C@@H]1C(=O)N2C(C(=O)O)=C(Cl)CS[C@H]12)c1ccccc1" came out in this test?
0

Called result for CC1CC2C3CCC4=CC(=O)C=C[C@]4(C)[C@@]3(F)[C@@H](O)C[C@]2(C)[C@@]1(O)C(=O)CO (stereo not given in full)
1

Short answer needed: outcome of this test for "Cc1cccc(Nc2ccncc2S(=O)(=O)NC(=O)NC(C)C)c1" ?
0

---

System: CASKI
EXPERIMENTAL DETAILS: Primary qHTS to identify gynecologic anti-cancer compounds using libraries of approved drugs and bioactive compounds (AID 1345084); also: nearly all actives have a fitted effect of over 55% in size
CONDITIONS: Gynecologic cancer cell panel viability, ATPlite luminescence, 48 h; series mostly up to 57.5 µM
Records with an inconclusive call do not appear. Active and inactive are the calls of the source. Calls follow the shape of the dose curve; as a rule, active = well fitted cell-killing curve with a large enough effect; inconclusive = small, poorly fitted or top-dose-only effect, or effect the other way; inactive = flat fitted curve, though single readings scatter.
Assign a class; possible classes are active, inactive

> print(dat)
                                   compound  system.tested  class.assignment
1  CCOc1cc(N)c(Cl)cc1C(=O)NCC1CN(Cc2ccc(F)cc2)CCO1 (configuration not stated)          CASKI          inactive
2  CC(=O)Oc1ccccc1C(=O)Nc1ncc([N+](=O)[O-])s1          CASKI          inactive
3  COc1ccc2c(c1)c(CC(=O)OCC(=O)O)c(C)n2C(=O)c1ccc(Cl)cc1          CASKI          inactive

How was "CN(C)c1ccc(C(=C2C=CC(=[N+](C)C)C=C2)c2ccc(N(C)C)cc2)cc1" classified in this test?
active

---

EXPERIMENTAL DETAILS: qHTS for identification of novel therapeutic agents for treatment of microphthalmiaassociated transcription factor (MiT) renal cell carcinoma (RCC) (AID 1963991);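 also: curves scaled with 100% = DMSO viability and 0% = empty wells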
CONDITIONS: TFE3-RCC viability, CellTiter-Glo, 48 h; measured here: UOK145 Z-AUC; stronger effect = lower value
Records with an inconclusive call do not appear.
QUANTITY: z-score
// return just the number, without any unit appended

Recorded results for 4 compounds are shown here.
> print(dat)
                                   compound  measured.value
1  C[C@]12C=CC(=O)C=C1CC[C@@H]1[C@@H]2C(=O)C[C@@]2(C)[C@H]1CC[C@]2(O)C(=O)CO           -3.21
2                   CC1=NN(c2ccccc2)C(=O)C1            -3.3
3  Cc1onc(-c2ccccc2Cl)c1C(=O)N[C@@H]1C(=O)N2[C@@H]1SC(C)(C)[C@@H]2C(=O)O            1.69
4  N[C@@H](C(=O)N[C@@H]1C(=O)N2C(C(=O)O)=C(Cl)CS[C@H]12)c1ccccc1           0.843

# next compound below
Can you look up the measured z-score of CC1=C(C(=O)O)N2C(=O)[C@@H](NC(=O)C(N)c3ccccc3)[C@H]2SC1 (stereo not given in full) for me?
0.731
